System: MMAC-SF;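 note: growth inhibition of human MMAC-SF cells, read out with a cell viability assay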
Test: cells
Assay type: functional, cell-based
Details: Homo sapiens
Description: SANGER: Inhibition of human MMAC-SF cell growth in a cell viability assay.
measure-name: IC50

The reported IC50 value, MMAC-SF, for CC(O)(CS(=O)(=O)c1ccc(F)cc1)C(=O)Nc1ccc(C#N)c(C(F)(F)F)c1 (centres undefined) [BICALUTAMIDE] reads > 1.02 µM

The reported IC50 value, MMAC-SF, for Fc1cc(-c2cc[nH]/c(=N/c3ccc(-n4cnc(N5CCOCC5)n4)cc3)n2)cc(N2CCOCC2)c1 reads 2.48 µM

The reported IC50 value, MMAC-SF, for O=c1cc(N2CCOCC2)oc2c(-c3cccc4c3sc3ccccc34)cccc12 reads > 2 µM

The reported IC50 value, MMAC-SF, for Cc1ccc(NC(=O)c2cccc(C(C)(C)C#N)c2)cc1Nc1ccc2ncn(C)c(=O)c2c1 reads 0.0401 µM

The reported IC50 value, MMAC-SF, for CCNc1cc(N[C@H]2CC[C@@H](O)CC2)nc(Nc2ccc3c(ccn3Cc3ccccc3)c2)n1 reads > 5.12 µM

----------
Each entry below lists one item and its recorded IC50 value.
Test system: JAR;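 note: growth inhibition of human JAR cells determined with a cell viability assay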
Assay: cells
Assay type: functional, cell-based
Details: Homo sapiens
Description: SANGER: Inhibition of human JAR cell growth in a cell viability assay.
# value in µM; strip the unit string

Past entries and their recorded results:
> print(dat)
                                   compound  unit  endpoint.value
1     Cn1cc(/C=C2\C(=O)Nc3cccnc32)c2ccccc21    µM           0.972
2  CC(C)=CC[C@@H](O)C1=CC(=O)c2c(O)ccc(O)c2C1=O [SHIKONIN]    µM            3.26
3  C[C@]12O[C@H](C[C@]1(O)CO)n1c3ccccc3c3c4c(c5c6ccccc6n2c5c31)CNC4=O [LESTAURTINIB]    µM         0.00994

Shifting focus to the compound that follows.
The reported IC50 value, JAR, for NC(=O)c1ncn([C@@H]2O[C@H](COP(=O)(O)O)[C@@H](O)[C@H]2O)c1N reads 346

----------
Test system: NCI-H1563
Assay: cells
Assay type: functional, cell-based
Conditions: Homo sapiens
Description: SANGER: Inhibition of human NCI-H1563 cell growth in a cell viability assay.
measure-name: pIC50
Value format note: pIC50 is -log10 of concentration (mol/L); just state the number.

> print(dat)
                                  structure  measure.name  endpoint.value
1  Fc1cc(-c2cc[nH]/c(=N/c3ccc(-n4cnc(N5CCOCC5)n4)cc3)n2)cc(N2CCOCC2)c1         pIC50            6.49

The reported pIC50 value, NCI-H1563, for Cn1c(=O)n(-c2ccc(C(C)(C)C#N)cc2)c2c3cc(-c4cnc5ccccc5c4)ccc3ncc21 reads 6.98

----------
Each entry below lists one item and its recorded IC50 value.
Test system: VMRC-RCZ
Experiment: cells
Format: functional, cell-based
Conditions: Homo sapiens
Description: SANGER: Inhibition of human VMRC-RCZ cell growth in a cell viability assay.

Past entries and their recorded results:
molecule	measure-name	endpoint-value
C/C(O)=C(\C#N)C(=O)Nc1cc(Br)ccc1Br	IC50	> 16 µM
C/C=C(/C)C(=O)O[C@H]1C(C)=C2[C@H]([C@@H]1OC(=O)CCCCCCC)[C@@](C)(OC(C)=O)C[C@H](OC(=O)CCC)[C@@]1(O)[C@H]2OC(=O)[C@@]1(C)O [THAPSIGARGIN]	IC50	0.0112 µM
CC[C@@]1(O)C(=O)OCc2c1cc1n(c2=O)Cc2cc3ccccc3nc2-1 [CAMPTOTHECIN]	IC50	0.0473 µM
O=c1[nH]c2ccccc2n1C1CCN(Cc2ccc(-c3nc4cc5[nH]cnc5cc4nc3-c3ccccc3)cc2)CC1	IC50	> 2.56 µM
Cn1cc(/C=C2\C(=O)Nc3cccnc32)c2ccccc21	IC50	> 2 µM

Form: molecule = NC(=O)c1ncn([C@@H]2O[C@H](COP(=O)(O)O)[C@@H](O)[C@H]2O)c1N ; IC50 = > 2000 µM
